These measurements were taken from the supplement of paper PMC6555819.

tested on: FXR:RXRa (NR concentration 270 nM, RXRa partner concentration 90 nM); assay: PBM binding z-score (relative to random genomic background probes); higher = stronger binding; sequences stand for … in GC…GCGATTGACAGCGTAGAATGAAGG
assay readout: PBM binding z-score
Numbers only.

[
  {
    "chain sequence": "CGTCAAAGTTCAAGGTATCGTAACAGAAAGCAGC",
    "reported value": 5.48
  },
  {
    "chain sequence": "TCATATAGGTAAAAGGTGATAGTCGGTGTGGTAA",
    "reported value": 1.41
  },
  {
    "chain sequence": "ATCTCTAGTTAAAGTTCAGTGAAAGATCGATAGA",
    "reported value": 1.49
  },
  {
    "chain sequence": "GCGACTGGGGCCTCAGCAGGTTACCATAACTTAA",
    "reported value": -0.561
  },
  {
    "chain sequence": "TCTATTAGTTGGTTAGGGCAACCGAAACAGCGGA",
    "reported value": 0.675
  }
]

State the recorded PBM binding z-score for every item in the following list.
1. ATCTCTAGGAAAAGATAGTTCAGTGAATGCAAAT
2. AATATTAGTTGAGACGAGGGCAACCGATAGGTTG
3. ATCTCTAGGTAAGACTCAGGTCAGTGAAGAACGC
4. TCAAATAGGTAATACAGGTGAAAGTCGGCATCTA
5. TTACCAGGGTGAAGGTCGTTGATCCCTCTGTAGA
6. CGAACTAGGTTATTGACAGGACAGTGAATAGTAA
7. TCATATAGGTAAACAGGTCAAAGTCCGTAAGTTA

Return:
1: 0.351; 2: 0.383; 3: 0.852; 4: 0.834; 5: 1.98; 6: 0.276; 7: 2.74

----------
test system: LXRa:RXRa (NR concentration 270 nM, RXRa partner concentration 90 nM); assay: PBM binding z-score (relative to random genomic background probes); higher = stronger binding; sequences stand for … in GC…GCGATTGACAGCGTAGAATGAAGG
Entries are sorted into classes by PBM binding z-score as follows: bin A = under 1, bin B = from 1 up to 4, bin C = 4 and over

Take a look at these entries with their results.
[
  {
    "chain sequence": "ATTCAAAGTTCACTAGGTAACGTAAGATTCAGCT",
    "target system": "LXRa:RXRa (NR concentration 270 nM, RXRa partner concentration 90 nM)",
    "answer label": "bin C"
  },
  {
    "chain sequence": "TCTAGTTCGTCAAAGGTCACACACTCGAAATGCG",
    "target system": "LXRa:RXRa (NR concentration 270 nM, RXRa partner concentration 90 nM)",
    "answer label": "bin C"
  },
  {
    "chain sequence": "ACAGACAGGAGATGAAGGTAACTCAGGCTATCAT",
    "target system": "LXRa:RXRa (NR concentration 270 nM, RXRa partner concentration 90 nM)",
    "answer label": "bin A"
  },
  {
    "chain sequence": "CGAACTAGGTCAGAACAGGACAGTGTAGGATGAT",
    "target system": "LXRa:RXRa (NR concentration 270 nM, RXRa partner concentration 90 nM)",
    "answer label": "bin A"
  },
  {
    "chain sequence": "AGAATGAGGTTGTTAAGATCAGGGAATTGCGGTC",
    "target system": "LXRa:RXRa (NR concentration 270 nM, RXRa partner concentration 90 nM)",
    "answer label": "bin A"
  }
]

Here is the next item to consider.
Enquiry: For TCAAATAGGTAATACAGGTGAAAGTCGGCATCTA , which PBM binding z-score bin applies?
Return: bin B
